B1: glmS ribozyme (parent)
chain: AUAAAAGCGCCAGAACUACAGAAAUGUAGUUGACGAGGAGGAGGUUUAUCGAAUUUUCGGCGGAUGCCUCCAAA

# Variants of: B1
# procedure.details: self-cleavage kobs at 640 uM GlcN6P; higher = faster cleavage; RNA array
# test.conditions: with glucosamine-6-phosphate
Fewer inactive variants are shown than the library holds.
For each of the variants below, state its self-cleavage kobs at 640 uM GlcN6P.

INSERT INTO assay_data (variant_label, observed_measurement) VALUES
  ('U47C G63C', '< 1e-05 s⁻¹'),
  ('G7U C16G', '< 1e-05 s⁻¹'),
  ('G35U U65G', '< 1e-05 s⁻¹'),
  ('C8G C58A C67A', '< 1e-05 s⁻¹'),
  ('U31G U54G', '0.00263 s⁻¹'),
  ('C61G A64G', '< 1e-05 s⁻¹'),
  ('C8A G35U C70G', '0.000526 s⁻¹'),
  ('A14G A15U C68G', '4.44e-05 s⁻¹');

Need self-cleavage kobs at 640 uM GlcN6P for each of these variants.
1. G29A G43A U56A
2. G13U G29U
3. G7A A52G U57A
4. G13A C16G A36C G41U A52U
5. U31A G35C G38U A48U U49G G63C
6. G32U U55G C71U
7. C50A G59C

1: < 1e-05 s⁻¹; 2: 4.23e-05 s⁻¹; 3: < 1e-05 s⁻¹; 4: < 1e-05 s⁻¹; 5: < 1e-05 s⁻¹; 6: 0.00014 s⁻¹; 7: < 1e-05 s⁻¹

Below is a list of variants. For each, state its recorded self-cleavage kobs at 640 uM GlcN6P.
1. A14U G26A C68G
2. U46A C58U
3. G7U G9A U31C G35A A52U

5e-05 s⁻¹
< 1e-05 s⁻¹
< 1e-05 s⁻¹

Consider the variant shown here: A39G A53C What is its recorded self-cleavage kobs at 640 uM GlcN6P?
0.00303 s⁻¹

These entries and their values trace back to the supplement of paper PMC7125110.
